Sourced from patent US11078213B2

# tested.on: NPM-ALK-BaF3 (Homo sapiens)
# Construct: NPM (nuclear phosphoprotein / nucleophosmin, NPM1, P06748) fusion partner; expressed in transfected cells; host or cells: BaF3; the other entry of the earlier key: NPM1 (P06748, Nucleophosmin)
# Sequence (Q9UM73 with tags, fused parts or gaps): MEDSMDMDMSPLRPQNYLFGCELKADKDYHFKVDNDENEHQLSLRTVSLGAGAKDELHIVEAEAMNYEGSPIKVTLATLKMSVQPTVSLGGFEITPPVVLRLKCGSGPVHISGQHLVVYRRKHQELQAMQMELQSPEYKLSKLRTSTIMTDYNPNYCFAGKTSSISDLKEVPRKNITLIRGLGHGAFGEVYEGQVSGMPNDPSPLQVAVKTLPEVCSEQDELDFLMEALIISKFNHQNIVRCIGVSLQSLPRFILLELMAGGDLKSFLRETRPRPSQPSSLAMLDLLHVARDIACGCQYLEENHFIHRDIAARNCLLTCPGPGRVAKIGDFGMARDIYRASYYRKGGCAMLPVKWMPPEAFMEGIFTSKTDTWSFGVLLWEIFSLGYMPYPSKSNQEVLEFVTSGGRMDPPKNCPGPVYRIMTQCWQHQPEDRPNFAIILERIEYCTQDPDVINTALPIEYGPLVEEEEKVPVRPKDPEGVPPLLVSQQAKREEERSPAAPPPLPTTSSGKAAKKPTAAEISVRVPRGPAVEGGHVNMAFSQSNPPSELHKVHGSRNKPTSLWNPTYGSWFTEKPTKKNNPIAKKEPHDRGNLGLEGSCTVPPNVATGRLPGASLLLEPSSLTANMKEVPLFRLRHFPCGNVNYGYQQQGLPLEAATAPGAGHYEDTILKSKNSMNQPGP
# test.method.notes: Growth inhibition of BaF3 cells stably transfected with kinase NPM-ALK (MTS)
# Format: cell-based
# conditions: compound concentration 3.3 μM, read-out: cell growth inhibition rate, NPM-ALK
property.measured: inhibition at 3.3 µM (%)

1. COC(=O)c1ccccc1Nc1nc(Nc2ccc(N3CCC(N4CCN(C)CC4)CC3)cc2)nc2ccsc12 : 93.6

1 = CC(C)S(=O)(=O)c1ccccc1CNc1nc(Nc2ccc(N3CCN(C)CC3)cc2)nc2ccsc12
2 = COc1cc(N2CCC(N3CCN(C)CC3)CC2)ccc1Nc1nc(Nc2ccccc2P(C)(C)=O)c2sccc2n1
Which has the smaller recorded inhibition at 3.3 µM, 1 or 2 ? Returns: label corresponding to the selected item.
1
